Recorded values, source the OligoGym collection.

CONDITION_DETAILS: siRNA; further: test system not given here
HELM strings list units from the 5' end as sugar, base in round brackets, then linkage (d deoxyribose, r ribose, m 2'-O-methyl, p phosphodiester). Strings are as the collection lists them, not checked against the first reports. ss, as = sense and antisense strand; [fl2r] = 2'-fluoro
READOUT_KIND: target mRNA knockdown (%)
Provide only the numeric value, understood in %.

Request: Entry `RNA1{r(A)p.r(A)p.r(A)p.r(C)p.[fl2r](C)p.[fl2r](A)p.r(G)p.r(G)p.[fl2r](A)p.r(A)p.r(G)p.[fl2r](G)p.r(G)p.r(G)p.r(A)p.r(A)p.r(A)p.r(U)p.r(C)p.r(T)p.r(T)}|RNA2{r(G)p.r(A)p.r(U)p.r(U)p.r(U)p.r(C)p.r(C)p.r(C)p.r(C)p.r(U)p.r(U)p.r(C)p.r(C)p.[fl2r](U)p.[fl2r](G)p.r(G)p.r(U)p.r(U)p.r(U)p.r(T)p.r(T)}$$$RNA1{StrandType:ss}|RNA2{StrandType:as}$` : reported target mRNA knockdown = ?
Response: 61

###

CONDITION_DETAILS: siRNA
HELM strings list units from the 5' end as sugar, base in round brackets, then linkage (d deoxyribose, r ribose, m 2'-O-methyl, p phosphodiester). Strings are as the collection lists them, not checked against the first reports. ss, as = sense and antisense strand; [fl2r] = 2'-fluoro
READOUT_KIND: target mRNA knockdown (%)
Provide only the numeric value, understood in %.

[
  {
    "SUBSTANCE": "RNA1{[fl2r](A)p.r(G)p.[fl2r](G)p.r(A)p.[fl2r](G)p.r(A)p.[fl2r](C)p.r(C)p.[fl2r](G)p.r(U)p.[fl2r](G)p.r(A)p.[fl2r](C)p.r(A)p.[fl2r](U)p.r(U)p.[fl2r](U)p.r(C)p.[fl2r](G)p.r(T)p.r(T)}|RNA2{r(C)p.[fl2r](G)p.r(A)p.r(A)p.r(A)p.r(U)p.[fl2r](G)p.r(U)p.r(C)p.r(A)p.r(C)p.[fl2r](G)p.[fl2r](G)p.r(U)p.r(C)p.r(U)p.r(C)p.r(C)p.r(U)p.r(T)p.r(T)}$$$RNA1{StrandType:ss}|RNA2{StrandType:as}$",
    "target mRNA knockdown (%)": 33
  }
]

// next item, target mRNA knockdown requested
Request: Entry `RNA1{r(C)p.r(U)p.r(C)p.r(C)p.r(G)p.r(A)p.r(C)p.r(A)p.r(G)p.r(A)p.m(U)p.r(G)p.r(A)p.r(A)p.r(G)p.r(G)p.r(A)p.r(A)p.r(A)p.r(T)p.r(T)}|RNA2{r(U)p.r(U)p.r(U)p.r(C)p.r(C)p.r(U)p.r(U)p.r(C)p.r(A)p.r(U)p.r(C)p.m(U)p.r(G)p.r(U)p.r(C)p.r(G)p.r(G)p.r(A)p.r(G)p.r(T)p.r(T)}$$$RNA1{StrandType:ss}|RNA2{StrandType:as}$` : reported target mRNA knockdown = ?
Response: 72

###

We begin with a simple list: items and their reported target mRNA knockdown.
CONDITION_DETAILS: siRNA
HELM strings list units from the 5' end as sugar, base in round brackets, then linkage (d deoxyribose, r ribose, m 2'-O-methyl, p phosphodiester). Strings are as the collection lists them, not checked against the first reports. ss, as = sense and antisense strand; [hna] = hexitol nucleic acid; [s4r] = 4'-thioribose
Provide only the numeric value, understood in %.

Illustrative cases are given below, each with its answer.
[
  {
    "SUBSTANCE": "RNA1{r(C)p.r(G)p.r(U)p.r(A)p.r(C)p.r(G)p.r(C)p.r(G)p.r(G)p.r(A)p.r(A)p.r(U)p.r(A)p.r(C)p.r(U)p.r(U)p.r(C)p.r(G)p.r(A)p.r(T)p.r(T)}|RNA2{[s4r](U)p.[s4r](C)p.[s4r](G)p.[s4r](A)p.[s4r](A)p.[s4r](G)p.[s4r](U)p.[s4r](A)p.[s4r](U)p.[s4r](U)p.[s4r](C)p.[s4r](C)p.[s4r](G)p.[s4r](C)p.[s4r](G)p.[s4r](U)p.[s4r](A)p.[s4r](C)p.[s4r](G)p.r(T)p.r(T)}$$$RNA1{StrandType:ss}|RNA2{StrandType:as}$",
    "NUMERIC_READOUT": 16.6
  },
  {
    "SUBSTANCE": "RNA1{m(A)p.m(A)p.r(C)p.r(C)p.r(C)p.m(A)p.r(C)p.r(C)p.m(A)p.r(C)p.m(A)p.r(G)p.r(C)p.r(U)p.m(A)p.r(G)p.m(A)p.m(A)p.r(C)p.m(U)p.m(U)}|RNA2{r(A)p.r(A)p.r(G)p.r(U)p.r(U)p.r(C)p.r(U)p.r(A)p.r(G)p.r(C)p.r(U)p.r(G)p.r(U)p.r(G)p.r(G)p.r(U)p.r(G)p.r(G)p.r(G)p.r(U)p.r(U)}$$$RNA1{StrandType:ss}|RNA2{StrandType:as}$",
    "NUMERIC_READOUT": 42
  },
  {
    "SUBSTANCE": "RNA1{r(A)p.m(U)p.r(A)p.r(C)p.r(U)p.m(U)p.m(G)p.r(G)p.r(C)p.r(G)p.r(G)p.r(G)p.m(C)p.r(U)p.r(C)p.r(U)p.r(U)p.r(U)p.r(C)p.r(T)p.r(T)}|RNA2{r(G)p.r(A)p.r(A)p.r(A)p.r(G)p.r(A)p.r(G)p.r(C)p.r(C)p.r(C)p.r(G)p.r(C)p.m(C)p.r(A)p.r(A)p.r(G)p.m(U)p.r(A)p.r(U)p.r(T)p.r(T)}$$$RNA1{StrandType:ss}|RNA2{StrandType:as}$",
    "NUMERIC_READOUT": 70
  },
  {
    "SUBSTANCE": "RNA1{r(C)p.r(U)p.r(C)p.r(C)p.r(G)p.r(A)p.m(C)p.m(A)p.r(G)p.r(A)p.m(U)p.r(G)p.r(A)p.r(A)p.r(G)p.r(G)p.r(A)p.r(A)p.r(A)p.r(T)p.r(T)}|RNA2{r(U)p.r(U)p.r(U)p.r(C)p.r(C)p.r(U)p.r(U)p.m(C)p.r(A)p.r(U)p.r(C)p.m(U)p.m(G)p.r(U)p.r(C)p.r(G)p.r(G)p.r(A)p.r(G)p.r(T)p.r(T)}$$$RNA1{StrandType:ss}|RNA2{StrandType:as}$",
    "NUMERIC_READOUT": 70
  },
  {
    "SUBSTANCE": "RNA1{r(C)p.r(G)p.r(U)p.r(A)p.r(C)p.r(G)p.r(C)p.r(G)p.r(G)p.r(A)p.r(A)p.r(U)p.r(A)p.r(C)p.r(U)p.r(U)p.r(C)p.r(G)p.r(A)p.r(T)p.r(T)}|RNA2{r(U)p.r(C)p.r(G)p.r(A)p.r(A)p.r(G)p.r(U)p.r(A)p.r(U)p.r(U)p.r(C)p.r(C)p.r(G)p.r(C)p.r(G)p.[s4r](U)p.[s4r](A)p.[s4r](C)p.[s4r](G)p.r(T)p.r(T)}$$$RNA1{StrandType:ss}|RNA2{StrandType:as}$",
    "NUMERIC_READOUT": 85.6
  }
]

Request: Entry `RNA1{r(G)p.r(A)p.r(C)p.r(G)p.[hna](U)p.r(A)p.r(A)p.[hna](A)p.r(C)p.r(G)p.[hna](G)p.r(C)p.r(C)p.[hna](A)p.r(C)p.r(A)p.r(A)p.r(G)p.r(U)p.[hna](U)p.d(T)}|RNA2{r(A)p.r(C)p.[hna](U)p.r(U)p.r(G)p.r(U)p.r(G)p.r(G)p.r(C)p.r(C)p.r(G)p.r(U)p.r(U)p.r(U)p.r(A)p.r(C)p.r(G)p.[hna](U)p.[hna](C)p.[hna](G)p.d(T)}$$$RNA1{StrandType:ss}|RNA2{StrandType:as}$` : reported target mRNA knockdown = ?
Response: 25.2

Request: Then `RNA1{r(A)p.r(G)p.r(C)p.r(C)p.r(U)p.r(C)p.r(C)p.r(A)p.r(A)p.r(A)p.r(C)p.r(U)p.r(C)p.r(C)p.r(U)p.r(A)p.r(G)p.r(C)p.r(U)p.r(T)p.r(T)}|RNA2{r(A)p.r(G)p.r(C)p.m(U)p.r(A)p.r(G)p.r(G)p.r(A)p.r(G)p.r(U)p.r(U)p.m(U)p.r(G)p.r(G)p.r(A)p.r(G)p.r(G)p.r(C)p.r(U)p.r(T)p.r(T)}$$$RNA1{StrandType:ss}|RNA2{StrandType:as}$` ?
Response: 70

###

CONDITION_DETAILS: siRNA
HELM strings list units from the 5' end as sugar, base in round brackets, then linkage (d deoxyribose, r ribose, m 2'-O-methyl, p phosphodiester). Strings are as the collection lists them, not checked against the first reports. ss, as = sense and antisense strand
READOUT_KIND: target mRNA knockdown (%)
Provide only the numeric value, understood in %.

Illustrative cases are given below, each with its answer.
[
  {
    "SUBSTANCE": "RNA1{r(G)p.r(A)p.r(G)p.r(A)p.r(G)p.r(A)p.r(G)p.r(A)p.r(C)p.r(G)p.r(G)p.m(U)p.m(G)p.r(G)p.r(A)p.r(A)p.r(G)p.r(A)p.r(A)p.r(T)p.r(T)}|RNA2{r(U)p.r(U)p.r(C)p.r(U)p.r(U)p.r(C)p.m(C)p.r(A)p.r(C)p.r(C)p.r(G)p.r(U)p.r(C)p.r(U)p.r(C)p.r(U)p.r(C)p.r(U)p.r(C)p.r(T)p.r(T)}$$$RNA1{StrandType:ss}|RNA2{StrandType:as}$",
    "NUMERIC_READOUT": 72
  },
  {
    "SUBSTANCE": "RNA1{m(A)p.r(G)p.m(C)p.r(C)p.m(A)p.r(C)p.m(A)p.r(U)p.m(U)p.r(U)p.m(C)p.r(U)p.m(A)p.r(G)p.m(G)p.r(A)p.m(G)p.r(A)p.r(U)p.r(T)p.r(T)}|RNA2{r(A)p.r(U)p.r(C)p.r(U)p.r(C)p.r(C)p.r(U)p.r(A)p.r(G)p.r(A)p.r(A)p.r(A)p.r(U)p.r(G)p.r(U)p.r(G)p.r(G)p.r(C)p.r(U)p.r(T)p.r(T)}$$$RNA1{StrandType:ss}|RNA2{StrandType:as}$",
    "NUMERIC_READOUT": 19
  },
  {
    "SUBSTANCE": "RNA1{m(A)p.r(G)p.m(A)p.r(A)p.m(G)p.r(U)p.m(A)p.r(C)p.m(C)p.r(A)p.m(G)p.r(G)p.m(A)p.r(G)p.m(G)p.r(C)p.m(G)p.r(U)p.m(U)p.r(T)p.r(T)}|RNA2{r(A)p.r(A)p.r(C)p.r(G)p.r(C)p.r(C)p.r(U)p.r(C)p.r(C)p.r(U)p.r(G)p.r(G)p.r(U)p.r(A)p.r(C)p.r(U)p.r(U)p.r(C)p.r(U)p.r(T)p.r(T)}$$$RNA1{StrandType:ss}|RNA2{StrandType:as}$",
    "NUMERIC_READOUT": 24
  }
]

// next item, target mRNA knockdown requested
Request: Entry `RNA1{r(G)p.r(G)p.r(C)p.r(C)p.r(U)p.r(U)p.r(U)p.r(C)p.r(U)p.r(C)p.r(U)p.r(C)p.m(U)p.r(A)p.r(G)p.r(A)p.m(U)p.r(A)p.r(U)p.r(T)p.r(T)}|RNA2{r(A)p.m(U)p.r(A)p.r(U)p.r(C)p.m(U)p.r(A)p.r(G)p.r(A)p.r(G)p.r(A)p.r(G)p.r(A)p.r(A)p.r(A)p.r(G)p.r(G)p.r(C)p.r(C)p.r(T)p.r(T)}$$$RNA1{StrandType:ss}|RNA2{StrandType:as}$` : reported target mRNA knockdown = ?
Response: 89
